- test: Tmax in healthy human at 250 to 800 mg/day, po administered for 21 days measured at day 21
- Format: ADME, organism-based
- runParameters: in vivo
reportedEndpoint: Tmax

I would be grateful if you could share the reported Tmax for `O=C(NN1C(=O)[C@@H]2[C@@H]3C=C[C@@H]([C@H]4C[C@@H]34)[C@@H]2C1=O)c1ccc(C(F)(F)F)cc1` .
2.67 h

----------
- test: Half life in healthy human at 800 mg/day, po administered for 21 days measured at day 21
- Assay type: ADME, organism-based
- runParameters: in vivo
reportedEndpoint: half-life (h)
The figure you give is taken to be in h; do not add the unit.

I would be grateful if you could share the reported half-life for `O=C(NN1C(=O)[C@@H]2[C@@H]3C=C[C@@H]([C@H]4C[C@@H]34)[C@@H]2C1=O)c1ccc(C(F)(F)F)cc1` .
20.7

----------
- test: AUC in healthy human at 800 mg/day, po administered for 21 days measured at day 1
- Format: ADME, organism-based
- runParameters: plasma
reportedEndpoint: AUC at 504 h (ng·h/mL)
The figure you give is taken to be in ng·h/mL; do not add the unit.

I would be grateful if you could share the reported AUC at 504 h for O=C(NN1C(=O)[C@@H]2[C@@H]3C=C[C@@H]([C@H]4C[C@@H]34)[C@@H]2C1=O)c1ccc(C(F)(F)F)cc1 [TECOVIRIMAT] .
21000

----------
- test: AUC in healthy human at 250 mg/day, po administered for 21 days measured at day 6
- Type: ADME, organism-based
- runParameters: plasma
reportedEndpoint: AUC at 504 h (ng·h/mL)
The figure you give is taken to be in ng·h/mL; do not add the unit.

I would be grateful if you could share the reported AUC at 504 h for O=C(NN1C(=O)[C@@H]2[C@@H]3C=C[C@@H]([C@H]4C[C@@H]34)[C@@H]2C1=O)c1ccc(C(F)(F)F)cc1 [TECOVIRIMAT] .
11900

----------
- test: Cmax in healthy human at 400 mg/day, po administered for 21 days measured at day 21
- Format: ADME, organism-based
- runParameters: in vivo
reportedEndpoint: Cmax (ng/mL)
The figure you give is taken to be in ng/mL; do not add the unit.

I would be grateful if you could share the reported Cmax for `O=C(NN1C(=O)[C@@H]2[C@@H]3C=C[C@@H]([C@H]4C[C@@H]34)[C@@H]2C1=O)c1ccc(C(F)(F)F)cc1` .
1460

----------
- test: AUC in healthy human at 400 mg/day, po administered for 21 days measured at day 1
- Type: ADME, organism-based
- runParameters: plasma
reportedEndpoint: AUC at 504 h (ng·h/mL)
The figure you give is taken to be in ng·h/mL; do not add the unit.

I would be grateful if you could share the reported AUC at 504 h for O=C(NN1C(=O)[C@@H]2[C@@H]3C=C[C@@H]([C@H]4C[C@@H]34)[C@@H]2C1=O)c1ccc(C(F)(F)F)cc1 [TECOVIRIMAT] .
13100

----------
- System: Homo sapiens
- test: Toxicity in healthy human assessed as incidence of treatment-emergent adverse events at 250 mg/day, po administered for 21 days
- Type: organism-based
- runParameters: in vivo, 504 h
reportedEndpoint: Activity
Output should be the measured figure followed by the unit it is expressed in.

Record `O=C(NN1C(=O)[C@@H]2[C@@H]3C=C[C@@H]([C@H]4C[C@@H]34)[C@@H]2C1=O)c1ccc(C(F)(F)F)cc1` : what is its Activity with Homo sapiens?
75%
